Source listed as patent US20250163183A1.

Assignment: determine reported koff for the given binders.
Target: T1, human activated protein C (APC) (human, UniProt P04070 43-461)
T1 construct: Bought (Haematologic Technologies; plasma-derived from Enzyme Research Laboratories); Two-chain disulfide-linked protease
T1 sequence (P04070 other isoform, or with tags, fused parts or gaps): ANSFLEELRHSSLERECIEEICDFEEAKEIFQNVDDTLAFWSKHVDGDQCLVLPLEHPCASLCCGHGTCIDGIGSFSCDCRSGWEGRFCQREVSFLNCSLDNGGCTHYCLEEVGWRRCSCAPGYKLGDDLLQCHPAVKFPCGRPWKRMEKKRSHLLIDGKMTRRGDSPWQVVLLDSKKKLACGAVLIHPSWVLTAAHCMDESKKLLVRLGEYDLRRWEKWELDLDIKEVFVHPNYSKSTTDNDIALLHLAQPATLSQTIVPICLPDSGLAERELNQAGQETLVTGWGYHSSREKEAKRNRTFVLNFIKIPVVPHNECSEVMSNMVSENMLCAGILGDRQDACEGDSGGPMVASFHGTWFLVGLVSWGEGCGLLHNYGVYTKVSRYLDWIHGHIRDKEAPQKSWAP
Assay: BLI, VHH captured via anti-V5, APC in solution
The reply should be a number in s⁻¹, with the unit left off.

Would you mind telling me what koff value was observed for LP1 (SR16983-R2-P3-D06) (VHH, not shown: small tags and cut ends, Llama VHH purified from E. coli periplasm) VHH: QLQLVESGGGLVQAGGSLRLSCAASGSTFPINVFAWYRQAPGEQRELGELVAFIGRSGTTNYGDSVKGRFTISRDNAKNTVYLQMDSLRPEDTAVYYCNLGDYWGQGTQVTVSS ?
0.009

Would you mind telling me what koff value was observed for LP10 (SR16983-R3-P3-E06) (VHH, not shown: small tags and cut ends, Llama VHH purified from E. coli periplasm) VHH: QVQLVESGGGLVQAGGSLRLSCAASGTIESINDMGWYRQAPGKQRELVATVSSSGMTNYADSAKGRFTISRDNAKNTMYLQMNSLKPEDTAVYYCKAHISRSYYYDSLGYDYWGQGTQVTVSS ?
0.0011

Would you mind telling me what koff value was observed for LP4 (SR16983-R3-P2-A06) (VHH, not shown: small tags and cut ends, Llama VHH purified from E. coli periplasm) VHH: QLQLVESGGGLVQAGGSLRLSCAASGSTFNFRIMGWYRQVPGKQRELVAVINSGGSADYTEDVKGRFTISRDDAKSTMYLQMNSLKPEDTAVYYCHAKKVEPTLFTTTYWGQGTQVTVSS ?
0.0027

Would you mind telling me what koff value was observed for LP15 (SR16983-R3-P5-H05) (VHH, not shown: small tags and cut ends, Llama VHH purified from E. coli periplasm) VHH: QLQLVESGGGLVQAGGSLRLSCAASGTTFSFVYMGWYRQAPGNQRDLVARISSDGSTNYADSVKGRFTISGDNAKNTVYLQMNSLKPEDTARYYCFWNGHTNKWGQGTQVTVSS ?
0.0066

Would you mind telling me what koff value was observed for LP2 (SR16983-R2-P3-H10) (VHH, not shown: small tags and cut ends, Llama VHH purified from E. coli periplasm) VHH: QVQLVESGGGLVQAGGSLRLSCAASGRPISAYTWAWFRQAPGKEREFVAAITSSAGTTYYADSVRGRFTISRDNAENTVYLRMNTLKPEDTAVYYCAADDQGDNWYDHWGQGTQVTVSS ?
0.0011
